# key: entry, value: viability at 72 h, 5 µM
assay: Cytotoxicity against human Huh7.5.1 cells infected with human HCV genotype 2a JFH1 assessed as cell viability at 5 uM incubated for 72 hrs by MTT assay; type: cell-based, Huh-7; details: Huh7.5.1 cells infected with HCV genotype 2a JFH1, read-out: Activity
Numeric only. Scale: %

Cc1cc(NC(=O)Nc2ccc(F)cc2)ccc1-n1ccc(=O)c2c(=O)n(Cc3ccc(Cl)cc3)ccc21 | 70.4
Cc1cc(NC(=O)c2ccccc2F)ccc1-n1ccc(=O)c2c(=O)n(Cc3ccc(Cl)cc3)ccc21 | 72.6
Nc1ccc(-n2ccc(=O)c3c(=O)n(Cc4ccc(Cl)cc4)ccc32)cc1 | 94.6
O=C(Nc1ccc(-n2ccc(=O)c3c(=O)n(Cc4ccc(Cl)cc4)ccc32)cc1)c1ncccc1Cl | 68.6
O=C(Nc1ccc(-n2ccc(=O)c3c(=O)n(Cc4ccc(Cl)cc4)ccc32)cc1)c1cc(F)ccc1F | 46.1
Nc1ccc(-n2ccc(=O)c3c(=O)n(CC4CCCCC4)ccc32)cc1C(F)(F)F | 100

Exam item: I have this compound here, O=C(Nc1ccc(-n2ccc(=O)c3c(=O)n(Cc4ccc(Cl)cc4)ccc32)c(C(F)(F)F)c1)c1cc(F)ccc1F , and I need its recorded viability at 72 h, 5 µM.
Marked response: 38.4

Exam item: I have this compound here, O=c1ccn(-c2ccc([N+](=O)[O-])cc2C(F)(F)F)c2ccn(Cc3ccc(Cl)cc3)c(=O)c12 , and I need its recorded viability at 72 h, 5 µM.
Marked response: 88.2

====

assay: Selectivity index, ratio of CC50 for human Huh7.5.1 cells infected with human HCV genotype 2a JFH1 to EC50 for HCV genotype 2a JFH1 infected in human Huh7.5.1 cells; parameters: species or system Huh-7
# key: entry, value: Ratio CC50/EC50
Answer using only a numeral; do not append any unit.

Exam item: I have this molecule here, CN1CCN(c2c(F)cc3c(=O)c(C(=O)OCc4ccc(Cl)cc4)c(-c4ccc(F)cc4)n(C4CC4)c3c2F)CC1 , and I need its recorded Ratio CC50/EC50.
Marked response: 5.5

Exam item: I have this molecule here, Nc1ccc(-n2ccc(=O)c3c(=O)n(Cc4ccc(Cl)cc4)ccc32)cc1C(F)(F)F , and I need its recorded Ratio CC50/EC50.
Marked response: 7.2

Exam item: I have this molecule here, Cc1c(C(=O)OCc2ccc(Cl)cc2)c(=O)c2cc(F)c(N3CCN(C)CC3)cc2n1Cc1ccc(Cl)cc1 , and I need its recorded Ratio CC50/EC50.
Marked response: 4.6

Exam item: I have this molecule here, COCc1c(C(=O)OCc2ccc(Cl)cc2)c(=O)c2cc(F)c(N3CCN(C)CC3)cc2n1Cc1ccc(Cl)cc1 , and I need its recorded Ratio CC50/EC50.
Marked response: 10.8

Exam item: I have this molecule here, CCc1c(C(=O)OCc2ccc(Cl)cc2)c(=O)c2cc(F)c(OC)cc2n1Cc1ccc(Cl)cc1 , and I need its recorded Ratio CC50/EC50.
Marked response: 7.2

====

assay: Cytotoxicity against human Huh7.5.1 cells infected with human HCV genotype 2a JFH1 assessed as cell viability at 5 uM incubated for 72 hrs by MTT assay; type: cell-based, Huh-7; settings: Huh7.5.1 cells infected with HCV genotype 2a JFH1, read-out: Activity
measurement-kind: viability at 72 h, 5 µM (%)
Numeric only. Scale: %

Nc1ccc(-n2ccc(=O)c3c(=O)n(Cc4ccc(Cl)cc4)ccc32)c(C(F)(F)F)c1 | 84.8

Exam item: I have this compound here, Nc1ccc(-n2ccc(=O)c3c(=O)n(Cc4ccccc4)ccc32)cc1C(F)(F)F , and I need its recorded viability at 72 h, 5 µM.
Marked response: 96.8

Exam item: I have this compound here, Cc1ccc(Cn2ccc3c(c(=O)ccn3-c3ccc(N)c(C(F)(F)F)c3)c2=O)cc1 , and I need its recorded viability at 72 h, 5 µM.
Marked response: 100

Exam item: I have this compound here, Nc1ccc(-n2ccc(=O)c3c(=O)n(Cc4ccc(Cl)cc4)ccc32)cc1C(F)(F)F , and I need its recorded viability at 72 h, 5 µM.
Marked response: 74.3
